Biological target: STK6A (Homo sapiens, UniProt O14965)
Construct: purchased in-house DSF kinase panel (SGC-style construct names; the trailing letter is the construct ID)
Sequence (O14965 122-403): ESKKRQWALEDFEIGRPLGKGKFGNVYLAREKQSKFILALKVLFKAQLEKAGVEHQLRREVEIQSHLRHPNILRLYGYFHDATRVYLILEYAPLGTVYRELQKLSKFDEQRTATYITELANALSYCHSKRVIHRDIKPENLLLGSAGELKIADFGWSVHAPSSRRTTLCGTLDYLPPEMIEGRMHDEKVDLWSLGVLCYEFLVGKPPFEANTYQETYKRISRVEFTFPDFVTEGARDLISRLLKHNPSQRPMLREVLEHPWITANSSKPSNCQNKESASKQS
Experiment: DSF Tm panel
Format: binding
Conditions: 10 μM compound
Reported ΔTm at 10 µM is given for each of the following molecules.
value.kind: ΔTm at 10 µM (°C)

| smiles.entry | experimental.system | number |
| --- | --- | --- |
| Cc1cc(Br)ccc1CNC(=O)Nc1ccc2cc1OCCOCCNc1ccn3ncc-2c3n1 | STK6A (Homo sapiens, UniProt O14965) | 5.4 |
| O=C(NCc1ccc(Cl)cc1Cl)Nc1ccc2cc1OCCOCCNc1ccn3ncc-2c3n1 | STK6A (Homo sapiens, UniProt O14965) | 7.4 |
| O=C(NCc1ccccc1C(F)(F)F)Nc1ccc2cc1OCCOCCNc1ccn3ncc-2c3n1 | STK6A (Homo sapiens, UniProt O14965) | 7 |
| O=C(NCc1ccc(C(F)(F)F)cc1)Nc1ccc2cc1OCCOCCNc1ccn3ncc-2c3n1 | STK6A (Homo sapiens, UniProt O14965) | 7.6 |
| O=C(NCc1ccccc1Cl)Nc1ccc2cc1OCCOCCNc1ccn3ncc-2c3n1 | STK6A (Homo sapiens, UniProt O14965) | 6.7 |
| CN1CCN(C(=O)Nc2ccc3cc2OCCOCCNc2ccn4ncc-3c4n2)CC1 | STK6A (Homo sapiens, UniProt O14965) | 2.4 |
| COc1ccccc1CNC(=O)Nc1ccc2cc1OCCOCCNc1ccn3ncc-2c3n1 | STK6A (Homo sapiens, UniProt O14965) | 5.6 |
